Tgt: human C3bBb (Bb from FB D279G/K350N/M458I) (human)
Sequence (P01024 23-1663, chain 1 of 2): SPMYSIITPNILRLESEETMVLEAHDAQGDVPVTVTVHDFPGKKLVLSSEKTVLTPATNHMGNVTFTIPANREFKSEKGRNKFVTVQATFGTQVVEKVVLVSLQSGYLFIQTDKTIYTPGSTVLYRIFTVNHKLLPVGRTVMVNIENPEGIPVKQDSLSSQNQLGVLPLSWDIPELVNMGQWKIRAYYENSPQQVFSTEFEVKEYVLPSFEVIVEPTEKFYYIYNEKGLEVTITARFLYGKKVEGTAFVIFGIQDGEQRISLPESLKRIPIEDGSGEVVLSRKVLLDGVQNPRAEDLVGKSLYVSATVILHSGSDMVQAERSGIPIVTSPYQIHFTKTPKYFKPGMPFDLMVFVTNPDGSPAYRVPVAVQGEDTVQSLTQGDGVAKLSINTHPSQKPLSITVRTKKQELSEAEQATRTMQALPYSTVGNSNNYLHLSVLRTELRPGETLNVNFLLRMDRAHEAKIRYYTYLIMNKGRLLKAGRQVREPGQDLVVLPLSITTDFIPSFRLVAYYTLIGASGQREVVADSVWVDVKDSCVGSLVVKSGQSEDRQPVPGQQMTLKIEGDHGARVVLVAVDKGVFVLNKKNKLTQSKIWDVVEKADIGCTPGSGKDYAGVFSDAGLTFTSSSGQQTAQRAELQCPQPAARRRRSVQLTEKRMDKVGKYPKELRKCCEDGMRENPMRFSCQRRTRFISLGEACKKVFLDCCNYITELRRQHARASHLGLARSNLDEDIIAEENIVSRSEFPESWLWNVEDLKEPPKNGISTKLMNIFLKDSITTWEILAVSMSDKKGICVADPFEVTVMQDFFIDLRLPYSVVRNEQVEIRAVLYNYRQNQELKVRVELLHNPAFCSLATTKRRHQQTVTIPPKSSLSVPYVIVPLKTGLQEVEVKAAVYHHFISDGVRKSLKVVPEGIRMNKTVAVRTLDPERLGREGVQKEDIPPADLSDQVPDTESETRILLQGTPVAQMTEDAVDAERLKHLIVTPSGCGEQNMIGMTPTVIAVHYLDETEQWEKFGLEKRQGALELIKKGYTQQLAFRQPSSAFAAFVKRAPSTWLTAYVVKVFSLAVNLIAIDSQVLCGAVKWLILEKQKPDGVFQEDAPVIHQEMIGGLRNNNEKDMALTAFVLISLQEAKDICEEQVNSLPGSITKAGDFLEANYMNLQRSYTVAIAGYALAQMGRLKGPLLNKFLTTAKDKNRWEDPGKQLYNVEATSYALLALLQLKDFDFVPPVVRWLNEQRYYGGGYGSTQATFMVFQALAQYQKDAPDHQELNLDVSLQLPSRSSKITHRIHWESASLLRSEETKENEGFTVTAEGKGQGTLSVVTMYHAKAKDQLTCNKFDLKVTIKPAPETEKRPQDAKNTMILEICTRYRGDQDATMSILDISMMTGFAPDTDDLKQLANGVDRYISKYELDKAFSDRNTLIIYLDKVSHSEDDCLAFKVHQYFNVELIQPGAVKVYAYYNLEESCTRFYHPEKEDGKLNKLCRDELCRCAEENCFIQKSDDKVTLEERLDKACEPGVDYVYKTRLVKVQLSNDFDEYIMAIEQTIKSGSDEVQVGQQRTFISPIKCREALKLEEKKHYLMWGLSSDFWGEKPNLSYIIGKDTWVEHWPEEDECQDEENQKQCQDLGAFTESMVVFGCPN
Sequence (P00751 260-764 D279G/K350N/M458I, chain 2 of 2, further chain): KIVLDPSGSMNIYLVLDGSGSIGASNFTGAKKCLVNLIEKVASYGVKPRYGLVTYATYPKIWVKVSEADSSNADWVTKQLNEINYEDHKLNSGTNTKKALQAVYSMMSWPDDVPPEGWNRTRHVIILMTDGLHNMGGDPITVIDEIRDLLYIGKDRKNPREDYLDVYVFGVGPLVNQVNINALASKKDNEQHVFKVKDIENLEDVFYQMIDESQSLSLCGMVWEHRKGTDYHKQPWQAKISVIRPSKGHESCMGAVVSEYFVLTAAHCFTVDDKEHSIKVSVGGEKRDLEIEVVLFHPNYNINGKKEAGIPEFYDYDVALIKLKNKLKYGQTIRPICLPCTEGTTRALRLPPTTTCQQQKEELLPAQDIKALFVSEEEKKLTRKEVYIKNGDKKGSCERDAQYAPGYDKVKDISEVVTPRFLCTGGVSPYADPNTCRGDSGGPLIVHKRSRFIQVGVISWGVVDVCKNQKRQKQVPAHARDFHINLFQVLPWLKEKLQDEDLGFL
Procedure summary: SPR, 37C
pKd: −log10 of the molar value.
# pKd values compiled below
Endpoint label: pKd

Binder | Endpoint label | Comparison symbol | Numeric readout
P1AG9420 (antibody, V domains shown) VH: RVQLVESGGGLVQPGGSLRLSCAASGFRYDHYAMSWVRQAPGKGLEWVGSISPRGNHKYYNTKFIDRFTISRDDEKNTLYLQMNSLRAEDTAVYYCARDWDYFDHWGQGTLVTVSS VL: AIQMTQSPSSLSASVGDRVTITCQASYWLSNYLAWYQQKPGKAPKLLIFDGDIPYEIPSRFSGSGSHEEYTLTISSLQPEDFATYYCQQYRETPYTFGQGTKLEIK | pKd | = | 10.96
P1AG9376 (antibody, V domains shown) VH: KVQLVESGGGLVQPGGSLRLSCAASGFKWEHYAMSWVRQAPGKGLEWVGSISPRGDHKYYNTKFIDRFTISRDNDKNTLYLQMNSLRAEDTAVYYCARDWDYFDRWGQGTLVTVSS VL: AIQMTQSPSSLSASVGDRVTITCQSQFWLSNYLAWYQQKPGKAPKLLIFDGDLPYERPSRFSGSGSHDEYTLTISSLQPEDFATYYCQQYREEPYTFGQGTKLEIK | pKd | > | 12.00
P1AG9372 (antibody, V domains shown) VH: EVQLVESGGGLVQPGGSLRLSCAASGFRFDIYAMSWVRQAPGKGLEWVGEISPDGRTKYYNTKFIDRFTISRDNEKNTLYLQMNSLRAEDTAVYYCARDWEYFDNWGQGTLVTVSS VL: AIQMTQSPSSLSASVGDRVTITCQSQFWLSNYLAWYQQKPGKAPKLLIFDGDLPYERPSRFSGSGSHDEYTLTISSLQPEDFATYYCQQYREEPYTFGQGTKLEIK | pKd | = | 10.94
